study.target: T1, Human ST2-his (human, UniProt Q01638-2 19-328, limits assumed)
T1 construct: Expressed in CHO-K1; The printed range starts at Met1; also called human ST2 fused with a 6-histidine tag at the C-terminus
T1 sequence: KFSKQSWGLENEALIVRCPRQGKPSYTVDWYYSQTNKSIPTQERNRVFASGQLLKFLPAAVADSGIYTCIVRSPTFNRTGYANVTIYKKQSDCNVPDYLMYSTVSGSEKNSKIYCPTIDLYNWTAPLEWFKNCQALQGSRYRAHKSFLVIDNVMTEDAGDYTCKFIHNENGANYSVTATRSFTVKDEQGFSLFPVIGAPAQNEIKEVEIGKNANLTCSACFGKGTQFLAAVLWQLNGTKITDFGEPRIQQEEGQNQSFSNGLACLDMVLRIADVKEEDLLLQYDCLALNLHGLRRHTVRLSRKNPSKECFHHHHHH
assay.notes: SPR Biacore X100, antibody captured on protein A chip, human ST2-his injected, dissociation at pH 5.5
assay.endpoint: kon (M⁻¹ s⁻¹)
# output: bare number, implied unit M⁻¹ s⁻¹

Dear colleague, I am looking for the recorded kon of the following binder: 5888-153-H0L1 (antibody, human IgG4 S228P, kappa, V domains shown, Humanized antibody) VH: QVQLVQSGAEVKKPGASVKVSCKASGYTFTDYELHWVRQAPGQGLEWMGTIDPETGDTVYNQKFKARVTMTRDTSTSTVYMELSSLRSEDTAVYYCARAFYNDYDDGFAYWGQGTLVTVSS VL: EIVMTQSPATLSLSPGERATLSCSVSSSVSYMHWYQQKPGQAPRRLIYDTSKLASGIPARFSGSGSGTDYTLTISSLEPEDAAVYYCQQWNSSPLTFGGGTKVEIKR
2.15e+06

Entry 5888-153-H3L2 (antibody, human IgG4 S228P, kappa, V domains shown, Humanized antibody) VH: QVQLVQSGAEVKKPGASVKVSCKASGYTFTDYELHWVRQAPGQGLEWMGTIDPETGDTVYNQKFKARVTMTADKSTSTAYMELSSLRSEDTAVYYCTRAFYNDYDDAFAYWGQGTLVTVSS VL: EIVMTQSPATLSLSPGERATLSCSVSSSVSYMHWYQQKPGQAPRRLIYDTSKLASGIPARFSGSGSGTDYTLTISSLEPEDAAVYYCQQWNTSPLTFGGGTKVEIKR has what kon?
1.87e+06

Given Control antibody CNTO7160 (antibody, human IgG4 S228P, kappa, V domains shown, Known anti-ST2 control antibody) VH: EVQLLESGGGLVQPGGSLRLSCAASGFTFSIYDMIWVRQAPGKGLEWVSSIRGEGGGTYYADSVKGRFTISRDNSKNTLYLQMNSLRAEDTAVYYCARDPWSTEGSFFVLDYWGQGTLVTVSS VL: EIVLTQSPATLSLSPGERATLSCRASQSVDDDLAWYQQKPGQAPRLLIYDASNRATGIPARFSGSGSGTDFTLTISSLEPEDFAVYYCQQYITAPLTFGQGTKVEIKR , state its recorded kon.
676000

Fill in: kon of 5886-156-H1L0 (antibody, human IgG4 S228P, kappa, V domains shown, Humanized antibody expressed in CHO-K1, purified by protein A) VH: QVQLQESGPGLVKPSQTLSLTCTVSGYSITSDYAWNWIRQPPGKGLEWIGYIDYSGSTTYNPSLKSRVTISRDTSKNQFSLKLSSVTAADTAVYYCASTVIDSMDYWGQGTLVTVSS VL: DIVLTQSPASLAVSPGQRATITCRASKSVSTSGHSYMHWYQQKPGQPPKLLIYLASNLESGVPARFSGSGSGTDFTLTINPVEANDTANYYCQHSREFPFTFGQGTKVEIKR is ___
1.01e+06

// lookup kon for 5888-379-H1L0 (antibody, human IgG4 S228P, kappa, V domains shown, Humanized antibody) VH: QVQLVQSGAEVKKPGASVKVSCKASGYTFINYGMNWVRQAPGQRLEWMGWINTYIGEPTYGDNFKGRVTITRDTSASTAYMELSSLRSEDTAVYYCAREGEGFAYWGQGTLVTVSS VL: DIQMTQSPSSLSASVGDRVTITCKSSQSLLYSGNQNNYLAWYQQKPGKVPKLLIYGASTRESGVPSRFSGSGSGTDFTLTISSLQPEDVATYYCQNDHSYPYTFGGGTKVEIKR
1.79e+06
